Assay type: in vivo, human
CONDITION SET: female, human, plasma, oral, Tmax, median (minimum, maximum), OC + ziritaxestat 600 mg q.d. (day 18, MD), n = 13
OUTCOME MEASURE: Tmax (h)
Report the value in h with no unit label.

## Input Supply recorded Tmax for C[C@]12CCC(=O)C=C1[C@@H]1C[C@@H]1[C@H]1[C@@H]3[C@@H]4C[C@@H]4[C@@]4(CCC(=O)O4)[C@@]3(C)CC[C@@H]12 here.
## Output 4

----------
Assay type: in vivo, human
CONDITION SET: female, human, plasma, oral, AUC0–inf, mean (CV%), OC alone (day 1), n = 15
OUTCOME MEASURE: AUC(0-inf) (ng·h/mL)
Express your answer in ng·h/mL, writing the number without its unit.

## Input Quick one: give measured AUC(0-inf) for C[C@]12CCC(=O)C=C1[C@@H]1C[C@@H]1[C@H]1[C@@H]3[C@@H]4C[C@@H]4[C@@]4(CCC(=O)O4)[C@@]3(C)CC[C@@H]12
## Output 574
